Data origin, for the record: patent US20230233569A1

Target: NRAS Q61R (Homo sapiens, UniProt P01111+P62937, Q61R)
Sequence (P01111 whole entry Q61R): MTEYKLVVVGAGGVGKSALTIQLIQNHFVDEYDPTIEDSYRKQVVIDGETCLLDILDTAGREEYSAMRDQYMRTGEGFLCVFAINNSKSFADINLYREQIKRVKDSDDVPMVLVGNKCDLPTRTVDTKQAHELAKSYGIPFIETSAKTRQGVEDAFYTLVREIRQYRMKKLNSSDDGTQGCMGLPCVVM
Sequence (P62937 whole entry): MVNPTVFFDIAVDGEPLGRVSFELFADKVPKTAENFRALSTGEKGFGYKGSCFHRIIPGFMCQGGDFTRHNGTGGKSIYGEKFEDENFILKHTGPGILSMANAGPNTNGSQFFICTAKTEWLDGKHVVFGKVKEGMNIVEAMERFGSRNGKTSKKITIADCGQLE
Test: Disruption of BRAF RBD interaction with Ras (FRET / MOA assay, with Cyclophilin A)
Type: biochemical
Settings: NRAS Q61R; read-out: NRAS Q61R FRET data IC50
pIC50: −log10 of the molar value.
measurement.kind: pIC50

Recorded pIC50, per entry:
Briefly, pIC50 measured for C=CC(=O)N1CCC2(C1)CN(C(=O)N(C)[C@H](C(=O)N[C@H]1Cc3nc(cs3)-c3ccc4c(c3)c(c(-c3cccnc3[C@H](C)OC)n4CC(F)(F)F)CC(C)(C)COC(=O)C3CCCN(N3)C1=O)C(C)C)C2 (stereo partly shown) : 7.00 to 8.00

Briefly, pIC50 measured for CCn1c(-c2cc(C3CCN(C)CC3)cnc2[C@H](C)OC)c2c3cc(ccc31)-c1csc(n1)C[C@H](NC(=O)[C@H](C(C)C)N(C)C(=O)N1CC(C3COC3)C1)C(=O)N1CCC[C@H](N1)C(=O)OCC(C)(C)C2 : 7.00 to 8.00

Briefly, pIC50 measured for CCn1c(-c2cccnc2[C@H](C)OC)c2c3cc(ccc31)-c1csc(n1)C[C@H](NC(=O)[C@H](C(C)C)N(C)C(=O)N(C)C1CCC1)C(=O)N1CCC[C@H](N1)C(=O)OCC(C)(C)C2 (atropisomer, axis not shown) : 7.00 to 8.00

Briefly, pIC50 measured for CCn1c(-c2cccnc2[C@H](C)OC)c2c3cc(ccc31)-c1csc(n1)C[C@H](NC(=O)[C@H](C(C)C)N(C)C(=O)N1C[C@@H]3CN(C)C[C@@H]31)C(=O)N1CCC[C@H](N1)C(=O)OCC(C)(C)C2 (atropisomer, axis not shown) : < 5.00

Briefly, pIC50 measured for C=CC(=O)N1CCO[C@H]2CN(C(=O)N(C)[C@H](C(=O)N[C@H]3CN4CCC=C(C4)c4ccc5c(c4)c(c(-c4cccnc4[C@H](C)OC)n5CC)CC(C)(C)COC(=O)[C@@H]4CCCN(N4)C3=O)C(C)C)C[C@H]21 : 5.00 to 6.00

Briefly, pIC50 measured for C=CC(=O)N(C)CC1CCN(C(=O)N(C)[C@H](C(=O)N[C@H]2Cc3nc(cs3)-c3ccc4c(c3)c(c(-c3cccnc3[C@H](C)OC)n4CC)CC(C)(C)COC(=O)C3CCCN(N3)C2=O)C(C)C)CC1 (stereo partly shown) : 7.00 to 8.00

Briefly, pIC50 measured for CCn1c(-c2cc(N3CCN(C)CC3)cnc2[C@H](C)OC)c2c3cc(ccc31)-c1csc(n1)C[C@H](NC(=O)[C@H](C(C)C)N(C)C(=O)N(C)C)C(=O)N1CCC[C@H](N1)C(=O)OCC(C)(C)C2 (atropisomer, axis not shown) : 7.00 to 8.00

Briefly, pIC50 measured for CCn1c(-c2cccnc2[C@H](C)OC)c2c3cc(ccc31)-c1csc(n1)C[C@H](NC(=O)[C@H](C(C)C)N(C)C(=O)N1CCC3(CN(C)C3)C1)C(=O)N1CCC[C@H](N1)C(=O)OCC(C)(C)C2 (atropisomer, axis not shown) : 7.00 to 8.00

# input for lookup
Briefly, pIC50 measured for C=CC(=O)N(C)CCC1CCN(C(=O)N(C)[C@H](C(=O)N[C@H]2Cc3nc(cs3)-c3ccc4c(c3)c(c(-c3cccnc3[C@H](C)OC)n4CC)CC(C)(C)COC(=O)C3CCCN(N3)C2=O)C(C)C)CC1 (stereo partly shown) : 7.00 to 8.00
